test: Half life of the compound at pH 7.4; type: physicochemical
MEASURE NAME: half-life (days)
Number only, in days; omit the unit.

Asked: Look up and report measured half-life for this entry: Nc1nc(SCc2ccccc2)nc2c1ncn2[C@@H]1O[C@H](COP(O)(=S)OP(=O)(O)OP(=O)(O)O)[C@@H](O)[C@H]1O (stereo partly specified)
Given back: 11

* * *

target: P2Y purinoceptor 6 (Homo sapiens) (UniProt Q15077); experiment: Agonist activity at recombinant human P2RY6 expressed in AD293 cells assessed as increase in intracellular IP1 levels; type: functional, cell-based
Sequence (Q15077 whole entry): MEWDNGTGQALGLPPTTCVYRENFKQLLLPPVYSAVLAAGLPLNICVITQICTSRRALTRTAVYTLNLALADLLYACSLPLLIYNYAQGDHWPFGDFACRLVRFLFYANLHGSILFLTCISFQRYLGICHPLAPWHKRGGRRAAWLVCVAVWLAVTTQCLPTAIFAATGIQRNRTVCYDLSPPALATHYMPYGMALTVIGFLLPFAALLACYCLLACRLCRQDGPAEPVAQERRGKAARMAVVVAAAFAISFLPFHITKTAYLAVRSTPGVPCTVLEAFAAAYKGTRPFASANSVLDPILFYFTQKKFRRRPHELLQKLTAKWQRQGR
Active and inactive are the calls of the source. The rule behind the calls is not given here.
Return exactly one item of active, inactive

Would you please look over these solved cases?
O=c1ccn([C@@H]2O[C@H](COP(=S)(S)OP(=O)(O)OP(=O)(O)O)[C@@H](O)[C@H]2O)c(=O)[nH]1 (some centres undefined); active
O=c1ccn([C@@H]2O[C@H](COP(=S)(S)OP(=O)(O)OP(=O)(O)OP(=S)(S)OC[C@H]3O[C@@H](n4ccc(=O)[nH]c4=O)[C@H](O)[C@@H]3O)[C@@H](O)[C@H]2O)c(=O)[nH]1 (some centres undefined); active
O=c1ccn([C@@H]2O[C@H](COP(=S)(S)OP(=O)(O)O)[C@@H](O)[C@H]2O)c(=O)[nH]1 (some centres undefined); active

// switching to the query compound
Asked: Which outcome did this test record for the compound O=c1ccn([C@@H]2O[C@H](COP(=S)(S)OP(=O)(O)CP(=O)(O)O)[C@@H](O)[C@H]2O)c(=O)[nH]1 (some centres undefined) ?
Given back: inactive

* * *

assay: Drug level treated with UTP 5'-O-Palpha,alpha-dithiophosphate-beta,gamma-methylene at 2 mM at pH 11.7 at room temperature after 25 days by 31P NMR method; assay type: physicochemical; details: pH 11.7, 600 h, 2000 µM
MEASURE NAME: Drug metabolism

O=P(O)(O)CP(=O)(O)O; Metabolite_Detected
O=c1ccn([C@@H]2O[C@H](COP(O)(=S)S)[C@@H](O)[C@H]2O)c(=O)[nH]1 (some centres undefined); Metabolite_Detected
OP(O)(=S)S; Metabolite_Detected
O=c1ccn([C@@H]2O[C@H](COP(O)(=S)SCCS)[C@@H](O)[C@H]2O)c(=O)[nH]1 (some centres undefined); Metabolite_Detected

* * *

molecular target: P2Y purinoceptor 4 (Homo sapiens) (UniProt P51582); assay: Agonist activity at recombinant human P2RY4 expressed in AD293 cells assessed as increase in intracellular calcium levels by Fluo-4/AM dye-based spectrofluorometer; assay type: functional, cell-based
Sequence (P51582 whole entry): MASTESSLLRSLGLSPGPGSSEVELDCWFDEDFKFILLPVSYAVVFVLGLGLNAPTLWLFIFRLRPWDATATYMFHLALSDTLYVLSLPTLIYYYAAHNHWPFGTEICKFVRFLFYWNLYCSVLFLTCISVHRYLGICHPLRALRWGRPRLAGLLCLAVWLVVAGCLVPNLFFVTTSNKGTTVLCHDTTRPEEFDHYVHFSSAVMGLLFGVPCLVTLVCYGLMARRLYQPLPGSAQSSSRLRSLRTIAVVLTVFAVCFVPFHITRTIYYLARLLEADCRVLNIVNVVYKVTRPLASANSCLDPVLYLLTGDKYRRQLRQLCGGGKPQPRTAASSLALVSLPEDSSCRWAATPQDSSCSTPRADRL
Active and inactive are the calls of the source. The calls are words filed in the database; no cut-off is given here.
MEASURE NAME: Activity

O=c1ccn([C@@H]2O[C@H](COP(=S)(S)OP(=O)(O)CP(=O)(O)O)[C@@H](O)[C@H]2O)c(=O)[nH]1 (some centres undefined); inactive
O=c1ccn([C@@H]2O[C@H](COP(=S)(S)OP(=O)(O)O)[C@@H](O)[C@H]2O)c(=O)[nH]1 (some centres undefined); inactive
O=c1ccn([C@@H]2O[C@H](COP(=S)(S)OP(=O)(O)OP(=O)(O)O)[C@@H](O)[C@H]2O)c(=O)[nH]1 (some centres undefined); inactive
O=c1ccn([C@@H]2O[C@H](COP(=S)(S)OP(=O)(O)OP(=O)(O)OP(=S)(S)OC[C@H]3O[C@@H](n4ccc(=O)[nH]c4=O)[C@H](O)[C@@H]3O)[C@@H](O)[C@H]2O)c(=O)[nH]1 (some centres undefined); inactive
